# Study Target: Sphingosine 1-phosphate receptor 1 (Homo sapiens, UniProt P21453)
# Sequence (P21453 whole entry): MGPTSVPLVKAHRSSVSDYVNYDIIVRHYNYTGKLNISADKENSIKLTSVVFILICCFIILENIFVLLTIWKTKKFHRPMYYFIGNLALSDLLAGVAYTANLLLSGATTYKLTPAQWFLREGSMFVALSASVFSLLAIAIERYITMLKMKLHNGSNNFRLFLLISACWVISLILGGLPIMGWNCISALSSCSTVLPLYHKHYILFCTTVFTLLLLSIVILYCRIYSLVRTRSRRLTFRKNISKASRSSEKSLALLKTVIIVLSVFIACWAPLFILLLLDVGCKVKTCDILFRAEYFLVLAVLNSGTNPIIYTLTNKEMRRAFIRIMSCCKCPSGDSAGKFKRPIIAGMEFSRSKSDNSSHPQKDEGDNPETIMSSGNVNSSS
# Protocol Text: direct activation of human S1P1 – cell-based, agonist mode, 60K MLSMR set, dose response (AID 468)
# Experimental Context: inactive by the depositor's call
For each of the compounds below, state its EC50.
I only need the number, in µM, no unit after it.

Sample CC1Cc2cc(-c3csc(NC(=O)Cc4cccs4)n3)ccc2N1S(C)(=O)=O (stereo not given) [MLS000027766] — what was its EC50?
11.8

Sample CCCc1cc2c(=O)c(-c3ccccn3)coc2cc1OC — what was its EC50?
51.8

Sample Cc1csc(NC(=O)c2nc(-c3ccccc3)n(-c3ccccc3)n2)n1 [MLS000058347] — what was its EC50?
10.1

Sample Cc1noc(/C=C/N(C)C)c1S(=O)(=O)N1CCc2ccccc21 — what was its EC50?
95

Sample CC(=O)Nc1ccc(S(=O)(=O)N2CCN(c3cccc(C)c3C)CC2)cc1 [MLS000115810] — what was its EC50?
15.4

Sample O=C1CC(N2CCN(C/C=C/c3ccccc3)CC2)C(=O)N1CCc1ccccc1 (stereo not given) — what was its EC50?
20

Sample CN1c2ccccc2C(C)(C)C12C=Cc1cc(O)ccc1O2 (stereo not given) — what was its EC50?
13.1

Sample O=C(NCc1ccco1)C1CCN(C(=O)c2cc3sccc3n2Cc2ccc(Cl)cc2)CC1 — what was its EC50?
10.6

Sample COc1ccc2c(c1)CCc1c(C(=O)NC3CCCCC3)noc1-2 [MLS000087437] — what was its EC50?
95

Sample CCCn1c(CN2CCN(c3cccc(Cl)c3)CC2)nc2c1c(=O)n(C)c(=O)n2C — what was its EC50?
20.3

Sample Cc1cc(N2CCOCC2)nc(NCc2ccccc2)n1 — what was its EC50?
13.2

Sample Cc1ccc(C)c(-n2nnnc2Sc2nnnn2-c2ccccc2)c1 — what was its EC50?
12.8

Sample COC(=O)c1ccc(CSc2nc3ccccc3c(=O)n2Cc2ccco2)o1 — what was its EC50?
18.8

Sample COc1ccc(-n2c(C)cc(C(=O)COC(=O)Cn3cnc4ccccc43)c2C)cc1 — what was its EC50?
10.3

Sample CC1CC(C)(C)Nc2ccc(OC(=O)c3ccco3)cc21 (stereo not given) — what was its EC50?
13.6

Sample CCc1ccc2c(COC(=O)c3n[nH]c4ccccc34)cc(=O)oc2c1 — what was its EC50?
10.6

Sample Cc1cc(C)n(-c2nc3ccccc3c(=O)n2OCCOc2ccccc2)n1 — what was its EC50?
20

Sample CC1CCN(S(=O)(=O)c2ccc3c(c2)oc(=O)n3CC(=O)NCc2ccc3c(c2)OCO3)CC1 — what was its EC50?
12.2

Sample COc1ccc(-c2cn3c(C)c(C(=O)N4CCCc5ccccc54)sc3n2)cc1 — what was its EC50?
50.5

Sample CCNc1nc2c(c(=O)n(C)c(=O)n2C)n1Cc1ccc(Cl)cc1 — what was its EC50?
12.9

Sample CCN(CC)S(=O)(=O)c1cccc(S(=O)(=O)c2cccc(S(=O)(=O)N(CC)CC)c2)c1 — what was its EC50?
19.3

Sample CCOC(=O)N1CCC(NC(=O)C2CCCN(Cc3nc(-c4cccc(Cl)c4)oc3C)C2)CC1 (stereo not given) — what was its EC50?
18.4

Sample C=CCn1c(SCC(=O)c2cccs2)nc2sc(CC)cc2c1=O — what was its EC50?
39.9

Sample CC(=O)Nc1ccc(S(=O)(=O)N2CCN(CCCOc3cc(C)ccc3C)CC2)cc1 [MLS000050317] — what was its EC50?
15.2

Sample N#C/C(=C/c1ccc(N2CCCCCC2)o1)c1ccc(F)cc1 [MLS000051438] — what was its EC50?
22.4

Sample CC1=CC(C)(C)Nc2ccc(OC(=O)c3ccco3)cc21 — what was its EC50?
13.3

Sample CCN(CC)C(=O)C1CCN(S(=O)(=O)c2ccc3oc4ccccc4c3c2)CC1 — what was its EC50?
31.7

Sample Cc1cccc(N2CCN(C(=O)C3CCCN(S(=O)(=O)c4cccc5cccnc45)C3)CC2)c1C (stereo not given) [MLS000120299] — what was its EC50?
16.3

Sample CCC(C)OC(=O)c1[nH]c2c(c1C)C(=O)CC(c1ccc(N(C)C)cc1)C2 (stereo not given) [MLS000116530] — what was its EC50?
18.7

Sample COc1ccccc1-c1nc(-c2ccc(Br)cc2)no1 — what was its EC50?
12

Sample Cc1ccc(S(=O)(=O)n2nc(C)c(Br)c2C)c(C)c1C — what was its EC50?
88

Sample O=C(C1CCN(S(=O)(=O)c2cccc3cccnc23)CC1)N1CCN(c2ccc(Cl)cc2)CC1 [MLS000116819] — what was its EC50?
17.3

Sample CCOC(=O)c1oc2ccc(S(=O)(=O)n3nc(-c4ccc(OC)cc4)cc3N)cc2c1C — what was its EC50?
30.4

Sample CC1CCCC(C)N1C(=O)CN1CCN(c2nc(-c3ccc(F)cc3)cs2)CC1 (stereo not given) — what was its EC50?
12.7

Sample CC(=O)c1ccc(N2CCN(c3ccc(C(F)(F)F)cn3)CC2)cc1 — what was its EC50?
29.4

Sample Cc1noc(C)c1S(=O)(=O)N(CC(=O)Nc1ccc2c(c1)OCCO2)c1ccc(C(C)C)cc1 [MLS000117406] — what was its EC50?
14.2

Sample CCOC(=O)c1ccc(NC(=O)CCc2nc(-c3ccc(Cl)cc3)no2)cc1 — what was its EC50?
13.3

Sample Cn1cccc1C(=O)OCc1cc(Cl)cc2c1OCOC2 — what was its EC50?
15.6

Sample Cn1nc(CC(=O)Nc2ccc(N3CCN(C(=O)OC(C)(C)C)CC3)cc2)c2ccccc2c1=O — what was its EC50?
13.3

Sample Oc1c(C(c2ccco2)N2CCN(C(c3ccccc3)c3ccccc3)CC2)sc2ncnn12 (stereo not given) — what was its EC50?
15.9
